Source listed as PubChem BioAssay AID624173.

# ASSAY SYSTEM: pyruvate kinase (Trypanosoma brucei)
# PROTOCOL NOTES: qHTS of Trypanosoma Brucei Inhibitors; also: nearly all actives have a fitted effect of over 50% in size
# CONDITION LABEL: TbPYK enzyme, Kinase-Glo Plus ATP luminescence, 45 min; series mostly up to 76.8 µM
Hit rate of the full screen: of about 410,000 compounds, about 490 (0.12%) were called active. Another 1% or so got no clear call; they are omitted. Calls follow the shape of the dose curve; as a rule, active = well fitted inhibition curve with a large enough effect; inconclusive = small, poorly fitted or top-dose-only effect; inactive = flat fitted curve, though single readings scatter. This is one part of a sample in which actives are shown more often than they occur.
Labels: active, inactive

[
  {
    "MOLECULE": "O=c1c(-c2ccc(F)c(F)c2)nc2cncnc2n1-c1ccccc1",
    "CLASS": "inactive"
  },
  {
    "MOLECULE": "CC(=O)Oc1ccc2c3c1OC1C(OC(C)=O)C=CC4[C@@H](C2)N(C)CC[C@]314 (some centres undefined)",
    "CLASS": "inactive"
  },
  {
    "MOLECULE": "Cc1ccc(NC(=O)Cn2c(=O)n(-c3ccccc3)c(=O)c3c4c(sc32)CCCC4)cc1",
    "CLASS": "inactive"
  },
  {
    "MOLECULE": "COc1ccccc1CN1CC2(CCN(S(=O)(=O)c3ccccc3)CC2)C1",
    "CLASS": "inactive"
  },
  {
    "MOLECULE": "COCCn1c(=O)c(-c2ccc(OC)cc2)nc2cnc(Oc3cccc(Cl)c3)nc21",
    "CLASS": "inactive"
  },
  {
    "MOLECULE": "CC1(C)OC2CC(=O)OC[C@@]23C1CC(=O)[C@]1(C)C3CC[C@@]2(C)C(c3ccoc3)OC(=O)C3O[C@@]321 (some centres undefined)",
    "CLASS": "inactive"
  },
  {
    "MOLECULE": "CC[C@]1(C)CC(=O)NC1=O",
    "CLASS": "inactive"
  },
  {
    "MOLECULE": "Cn1c(=O)c(-c2ccccc2)nc2cnc(N3CCNCC3)nc21",
    "CLASS": "inactive"
  },
  {
    "MOLECULE": "O=c1c(CCc2ccccc2)nc2cncnc2n1C1CC1",
    "CLASS": "inactive"
  },
  {
    "MOLECULE": "CNC(C)[C@@H](O)c1ccccc1 (some centres undefined)",
    "CLASS": "inactive"
  },
  {
    "MOLECULE": "Cc1nnc(C(=O)NC(C)(C)c2nc(C(=O)NCc3ccc(F)cc3)c(O)c(=O)n2C)o1",
    "CLASS": "inactive"
  },
  {
    "MOLECULE": "COC(=O)[C@@H]1CC2=CC(=O)CC[C@]2(C)[C@@]23O[C@@H]2C[C@@]2(C)[C@@H](CC[C@@]24CCC(=O)O4)[C@H]13",
    "CLASS": "inactive"
  },
  {
    "MOLECULE": "c1csc(CN2CC3(CCNCC3)C2)n1",
    "CLASS": "inactive"
  },
  {
    "MOLECULE": "CC1(C)NC(=O)N(CC(=O)Nc2ccc(-c3ccccc3)cc2)C1=O",
    "CLASS": "inactive"
  },
  {
    "MOLECULE": "O=C1C=CC(=O)N1c1ccc(N2CCCCC2)cc1",
    "CLASS": "active"
  },
  {
    "MOLECULE": "CC1(C)[C@H](O[C@H]2O[C@H](C(=O)O)[C@@H](O)[C@H](O)[C@H]2O[C@@H]2O[C@H](C(=O)O)[C@@H](O)[C@H](O)[C@H]2O)CC[C@@]2(C)[C@H]1CC[C@]1(C)[C@H]2C(=O)C=C2[C@H]3C[C@@](C)(C(=O)O)CC[C@]3(C)CC[C@]21C",
    "CLASS": "inactive"
  },
  {
    "MOLECULE": "CC(=O)OCC(=O)[C@@]1(O)CC[C@@H]2[C@H]3CCC4=CC(=O)C=C[C@]4(C)[C@]3(F)[C@@H](O)C[C@@]21C",
    "CLASS": "inactive"
  },
  {
    "MOLECULE": "CCCCCCCCCc1ccc(OCCOCCOCCOCCOCCOCCOCCOCCOCCO)cc1",
    "CLASS": "inactive"
  },
  {
    "MOLECULE": "COc1cc2c(cc1OC)CC(=O)N(CCCN(C)C[C@H]1Cc3cc(OC)c(OC)cc31)CC2",
    "CLASS": "inactive"
  }
]

---

# ASSAY SYSTEM: pyruvate kinase (Trypanosoma brucei)
# PROTOCOL NOTES: qHTS of Trypanosoma Brucei Inhibitors; also: nearly all actives have a fitted effect of over 50% in size
# CONDITION LABEL: TbPYK enzyme, Kinase-Glo Plus ATP luminescence, 45 min; series mostly up to 76.8 µM
The campaign covered roughly 410,000 compounds. About 490 (0.12%) were called active. Inconclusive results (about 1%) are left out. Calls come from the whole dose curve; as a rule, active = well fitted inhibition curve with a large enough effect; inconclusive = small, poorly fitted or top-dose-only effect; inactive = flat fitted curve, though single readings scatter. The list comes from a sample in which actives are over-represented; it also holds close analogues and randomly drawn compounds.
Labels: active, inactive

[
  {
    "MOLECULE": "CC(=O)N1CCC2(CCCN(Cc3ccccc3)C2)CC1",
    "CLASS": "inactive"
  },
  {
    "MOLECULE": "COc1cc([C@@H]2c3cc4c(cc3[C@@H](O[C@@H]3O[C@@H]5CO[C@@H](C)O[C@H]5[C@H](O)[C@H]3O)[C@H]3COC(=O)[C@H]23)OCO4)cc(OC)c1OP(=O)(O)O",
    "CLASS": "inactive"
  },
  {
    "MOLECULE": "O=C(c1cnccn1)N1CCC[C@@]2(CCN(Cc3ccncc3)C2)C1",
    "CLASS": "inactive"
  },
  {
    "MOLECULE": "Nc1ccccc1SC(C[N+](=O)[O-])c1ccccc1 (stereo unspecified)",
    "CLASS": "active"
  },
  {
    "MOLECULE": "CC(C)(O)c1ccccc1CC[C@H](SCC1(CC(=O)O)CC1)c1cccc(/C=C/c2ccc3ccc(Cl)cc3n2)c1",
    "CLASS": "inactive"
  },
  {
    "MOLECULE": "OCC(CO)NC1C[C@](O)(CO)[C@@H](O)[C@H](O)[C@H]1O (stereo partly specified)",
    "CLASS": "inactive"
  },
  {
    "MOLECULE": "CC1(C)O[C@@H]2C[C@@H]3[C@H]4C[C@@H](F)C5=CC(=O)C=C[C@]5(C)[C@@]4(F)[C@@H](O)C[C@]3(C)[C@]2(C(=O)CO)O1",
    "CLASS": "inactive"
  },
  {
    "MOLECULE": "COC(=O)N1CCC[C@@]2(CCN(C(=O)NC(C)C)C2)C1",
    "CLASS": "inactive"
  },
  {
    "MOLECULE": "O=C(N/N=C/c1ccc([N+](=O)[O-])o1)c1cc([N+](=O)[O-])cc([N+](=O)[O-])c1O",
    "CLASS": "inactive"
  },
  {
    "MOLECULE": "COc1ccc(Cn2ccn(CC(=O)Nc3cc(C)ccc3C)c(=O)c2=O)cc1",
    "CLASS": "inactive"
  },
  {
    "MOLECULE": "C/C=C/C=N/NC(=O)c1ccncc1",
    "CLASS": "inactive"
  },
  {
    "MOLECULE": "S=c1[nH]nc(-c2cc(-c3ccsc3)n[nH]2)n1-c1ccccc1",
    "CLASS": "active"
  },
  {
    "MOLECULE": "COc1ccc(CNc2nc(-c3ccc(Cl)cc3)cc(C(F)(F)F)n2)cc1",
    "CLASS": "inactive"
  },
  {
    "MOLECULE": "COc1cc2c(cc1OC)[C@@H](Cc1cc(OC)c(OC)c(OC)c1)[N+](C)(CCCOC(=O)CC/C=C/CCC(=O)OCCC[N+]1(C)CCc3cc(OC)c(OC)cc3[C@H]1Cc1cc(OC)c(OC)c(OC)c1)CC2 (stereo partly specified)",
    "CLASS": "inactive"
  },
  {
    "MOLECULE": "COc1cc(OC)c(-n2cc(-c3ccc(Cl)cc3)[nH]c2=O)cc1Cl",
    "CLASS": "inactive"
  },
  {
    "MOLECULE": "Cc1cccc([C@H](C)c2cnc[nH]2)c1C",
    "CLASS": "inactive"
  },
  {
    "MOLECULE": "CC[N+]1(CCOC(=O)C(O)(c2ccccc2)c2ccccc2)CCCCC1",
    "CLASS": "inactive"
  },
  {
    "MOLECULE": "CS(=O)(=O)N1CCC2(CCN(c3ccncc3)CC2)CC1",
    "CLASS": "inactive"
  },
  {
    "MOLECULE": "COc1ncc2nc(-c3ccc(Cl)cc3)c(=O)n(-c3ccccc3)c2n1",
    "CLASS": "inactive"
  },
  {
    "MOLECULE": "CS(=O)(=O)N1CCC2(CC1)CN(Cc1ccccc1)C2",
    "CLASS": "inactive"
  },
  {
    "MOLECULE": "Cc1ccc(C)c2c1cc(C)c1nnc(SCC(=O)Nc3cccc(C(=O)O)c3)n12",
    "CLASS": "active"
  },
  {
    "MOLECULE": "O=C1c2c(O)cccc2[C@@H]([C@@H]2O[C@H](CO)[C@@H](O)[C@H](O)[C@H]2O)c2cc(CO)cc(O)c21",
    "CLASS": "inactive"
  },
  {
    "MOLECULE": "COc1ccc(-c2nc3cnc(Oc4ccccc4)nc3n(Cc3cccs3)c2=O)cc1",
    "CLASS": "inactive"
  },
  {
    "MOLECULE": "COc1ccc(-n2c(-c3ccc(Cl)cc3)n[nH]c2=S)c(OC)c1",
    "CLASS": "active"
  },
  {
    "MOLECULE": "CS(=O)(=O)N1CCC2(CC1)CN(c1ccncc1)C2",
    "CLASS": "inactive"
  },
  {
    "MOLECULE": "CCCCCCCCCCCCCCCCO",
    "CLASS": "inactive"
  },
  {
    "MOLECULE": "CCNc1ncc2nc(CCc3ccccc3)c(=O)n(-c3ccc(OC)cc3)c2n1",
    "CLASS": "inactive"
  },
  {
    "MOLECULE": "O=C(c1cccc(F)c1)N1CCC2(CC1)CCN(c1ccccc1)CC2",
    "CLASS": "inactive"
  },
  {
    "MOLECULE": "O=C(c1ccco1)N1CCC2(CC1)CCN(c1ncccn1)CC2",
    "CLASS": "inactive"
  },
  {
    "MOLECULE": "O=C(c1csnn1)N1CCC2(CC1)CN(c1ncccn1)C2",
    "CLASS": "inactive"
  },
  {
    "MOLECULE": "Cc1ccc(-c2ncc(Cl)cc2-c2ccc(S(C)(=O)=O)cc2)cn1",
    "CLASS": "inactive"
  },
  {
    "MOLECULE": "CO[C@]12CC[C@@]3(C[C@@H]1[C@](C)(O)C(C)(C)C)[C@@H]1Cc4ccc(O)c5c4[C@@]3(CCN1CC1CC1)[C@H]2O5",
    "CLASS": "inactive"
  },
  {
    "MOLECULE": "O=c1c(-c2cc(F)cc(F)c2)nc2cnc(Oc3ccccc3)nc2n1C[C@H]1CCCO1",
    "CLASS": "inactive"
  },
  {
    "MOLECULE": "O=C(c1ccco1)N1CCC2(CC1)CN(c1ncccn1)C2",
    "CLASS": "inactive"
  },
  {
    "MOLECULE": "COc1ccc(-c2cn(-c3ccc(C)cc3)c(=O)n2CC(=O)Nc2ccc(OC)c(OC)c2)cc1",
    "CLASS": "inactive"
  },
  {
    "MOLECULE": "O=P1(N(CCCl)CCCl)NC(OO)CCO1 (stereo unspecified)",
    "CLASS": "inactive"
  },
  {
    "MOLECULE": "COc1ccc(-n2c(-c3ccc(OC)c(OC)c3)n[nH]c2=S)cc1",
    "CLASS": "active"
  },
  {
    "MOLECULE": "N#Cc1cccc(-c2nc3cnc(N4CCNCC4)nc3n(C3CC3)c2=O)c1",
    "CLASS": "inactive"
  },
  {
    "MOLECULE": "NCCCCC(N)C(=O)O (stereo unspecified)",
    "CLASS": "inactive"
  },
  {
    "MOLECULE": "CCOc1ccc(NS(=O)(=O)c2ccc(N)cc2)nn1",
    "CLASS": "inactive"
  },
  {
    "MOLECULE": "Cc1cc(-c2csc(N)n2)c(C)n1-c1ccccc1",
    "CLASS": "inactive"
  }
]
